Data credit: patent US20100081612A1

- TESTED ON: PTHR-delNt (human) (UniProt Q03431)
- Sequence (Q03431 185-593, form in doubt): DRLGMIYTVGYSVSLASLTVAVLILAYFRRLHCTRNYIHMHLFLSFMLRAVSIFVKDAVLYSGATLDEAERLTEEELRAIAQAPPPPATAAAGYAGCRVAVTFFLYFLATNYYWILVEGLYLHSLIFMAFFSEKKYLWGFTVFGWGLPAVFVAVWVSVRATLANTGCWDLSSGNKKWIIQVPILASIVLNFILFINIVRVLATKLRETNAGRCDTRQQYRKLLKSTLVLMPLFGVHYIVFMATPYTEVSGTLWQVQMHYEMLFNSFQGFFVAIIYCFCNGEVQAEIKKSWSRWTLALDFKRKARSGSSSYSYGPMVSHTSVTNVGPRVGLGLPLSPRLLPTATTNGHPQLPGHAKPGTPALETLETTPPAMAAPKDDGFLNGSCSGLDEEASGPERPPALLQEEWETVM
- PROTOCOL TEXT: competition binding, COS-7 membranes, 125I-[Aib1,3,M]PTH(1-15) tracer
Where no end group is shown, it is not given here. [ ]: non-standard residue; d: D form. Apa = (S)-2-amino-4[(2-amino)pyrimidinyl]methylalanine
EXPERIMENTAL READOUT: fold difference of IC50 from PTH(1-31)NH2

Use these answered entries as a reference point.
BINDER	RESULT
SVSEIQLMHNLGKHLNSME[Apa]VEWLRKKLQDV-NH2 [PTH(1-31)NH2 Arg^20→Apa]	< 4 fold
SVSEIQLMHNLGKHLNSMEQVEWLRKKLQDV-NH2 [PTH(1-31)NH2 Arg^20→Gln]	< 4 fold
SVSEIQLMHNLGKHLNSMEXVEWLRKKLQDV (citrulline (Cit) at 20; C-terminal amide) [PTH(1-31)NH2 Arg^20→Cit]	< 4 fold

Turning now to a further record.
-- ask Which fold difference of IC50 from PTH(1-31)NH2 reading was recorded for the binder SVSEIQLMHNLGKHLNSMEKVEWLRKKLQDV-NH2 [PTH(1-31)NH2 Arg^20→Lys] ?
-- reply < 4 fold
